As shown below, each of these molecules has a reported pIC50 value.
Molecular target: human A2A receptor (A2AR) (Homo sapiens, UniProt P29274)
Sequence (P29274 whole entry): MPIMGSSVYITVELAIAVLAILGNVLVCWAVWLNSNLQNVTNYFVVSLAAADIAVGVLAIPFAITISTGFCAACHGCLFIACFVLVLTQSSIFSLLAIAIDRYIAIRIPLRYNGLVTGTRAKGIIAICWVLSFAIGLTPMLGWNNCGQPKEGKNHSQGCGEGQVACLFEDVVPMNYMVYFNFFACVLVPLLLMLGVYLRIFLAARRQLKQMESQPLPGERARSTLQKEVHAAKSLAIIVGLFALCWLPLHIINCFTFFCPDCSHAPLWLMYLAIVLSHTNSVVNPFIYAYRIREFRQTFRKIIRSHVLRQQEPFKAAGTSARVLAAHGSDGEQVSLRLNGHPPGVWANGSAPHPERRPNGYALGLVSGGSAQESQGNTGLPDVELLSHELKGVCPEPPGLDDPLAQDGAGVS
Assay: Luciferase reporter assay (HEK293-A2AR-luc2p/CRE/Hygro cells, 3 nM CGS21680)
Conditions: 3 nM CGS21680, 5 h incubation
Entry type: numeric. Quantity: pIC50, the -log10 of concentration in molar units.

Please review the following examples before continuing.
{"columns": ["MOLECULE", "MEASURE NAME", "TEST RESULT"],
 "data": [
  ["CC(C(=O)N1CCN(c2ccc(C(=O)N3CCCCC3)cc2)CC1)(c1ccccc1)n1ncc2c1nc(N)n1nc(-c3ccco3)nc21 (stereo not drawn)", "pIC50", 8.04],
  ["CCCCC(C(=O)N1CCN(c2ccc(OCCOC)cc2)CC1)n1ncc2c1nc(N)n1nc(-c3ccco3)nc21 (single isomer, unassigned) [Compound A10a]", "pIC50", 8.57]
]}

For the next question, use this molecule.
Identify the reported pIC50 for the following entry. COCCOc1ccc(N2CCN(C(=O)C(C)n3ncc4c3nc(N)n3nc(-c5ccco5)nc43)CC2)cc1 (stereo not drawn) [Compound A1]
7.37
